Ref: ChEMBL document CHEMBL4431336

pIC50 by entry:
testedTarget: Muscarinic acetylcholine receptor M5 (Homo sapiens, UniProt P08912)
Sequence (P08912 whole entry): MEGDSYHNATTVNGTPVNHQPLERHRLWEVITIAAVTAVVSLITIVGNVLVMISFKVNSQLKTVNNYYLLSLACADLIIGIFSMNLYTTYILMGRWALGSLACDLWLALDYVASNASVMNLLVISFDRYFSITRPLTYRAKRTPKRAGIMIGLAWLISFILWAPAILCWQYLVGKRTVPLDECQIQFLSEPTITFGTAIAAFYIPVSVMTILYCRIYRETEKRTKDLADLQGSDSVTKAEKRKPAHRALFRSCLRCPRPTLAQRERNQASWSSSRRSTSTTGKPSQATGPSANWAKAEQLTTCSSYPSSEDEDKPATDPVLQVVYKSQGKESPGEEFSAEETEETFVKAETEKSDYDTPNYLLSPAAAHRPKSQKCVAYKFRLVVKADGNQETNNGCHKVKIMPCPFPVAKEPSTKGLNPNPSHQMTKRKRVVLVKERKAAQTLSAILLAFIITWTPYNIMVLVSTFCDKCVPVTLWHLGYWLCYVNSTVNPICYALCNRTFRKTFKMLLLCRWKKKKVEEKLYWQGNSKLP
testDescription: Antagonist activity at human muscarinic M5 receptor assessed as inhibition of acetylcholine-induced calcium response
Assay type: functional
details: read-out: IC50
pIC50: −log10 of the molar value.

Here's what some known entries look like.
>  <mol>
O=S(=O)(c1ccc(F)c(Cl)c1)N1CCC2(CC1)OCCS2

>  <pIC50>
< 5.00

$$$$
>  <mol>
CCN(C(=O)Cn1cc(-c2ccccc2)c(N2CCOCC2)n1)c1cccc(C)c1

>  <pIC50>
< 5.00

$$$$
>  <mol>
Cc1c(S(=O)(=O)N2CCC3(CC2)OCCS3)cnn1C

>  <pIC50>
< 5.00

$$$$
>  <mol>
Cc1noc(C)c1CCc1nnc2scc(-c3ccc(Cl)cc3)n12

>  <pIC50>
< 5.00

$$$$
>  <mol>
COc1ccc([C@@]23c4ccccc4C(=O)N2CCN3C(=O)c2cc(F)c(F)c(F)c2)cc1C

>  <pIC50>
6.61

$$$$

// query What value of pIC50 has been reported for the following molecule? `Cc1nn(C)c(C)c1S(=O)(=O)N1CCC2(CC1)OCCO2`
// result < 5.00

// query What value of pIC50 has been reported for the following molecule? `O=S(=O)(c1cc(F)c(F)c(F)c1)N1CCC2(CC1)OCCS2`
// result < 5.00

// query What value of pIC50 has been reported for the following molecule? `Cc1nn(C)c(C)c1S(=O)(=O)N1CCC2(CCCO2)CC1`
// result < 5.00

// query What value of pIC50 has been reported for the following molecule? `Cc1nn(C)c(C)c1S(=O)(=O)N1CCC2(CC1)SCCS2`
// result < 5.00

// query What value of pIC50 has been reported for the following molecule? `Cn1cc(S(=O)(=O)N2CCC3(CC2)OCCS3)cn1`
// result < 5.00

// query What value of pIC50 has been reported for the following molecule? `O=S(=O)(c1cc(F)cc(F)c1)N1CCC2(CC1)OCCS2`
// result < 5.00

// query What value of pIC50 has been reported for the following molecule? `Cc1nn(C)c(C)c1S(=O)(=O)N1CCC2(CC1)OCCS2`
// result 5.21 to 5.41

// query What value of pIC50 has been reported for the following molecule? `Fc1cc(F)cc(-c2nnc(Cc3nc(-c4ccc5c(c4)OCO5)no3)o2)c1`
// result 5.29

// query What value of pIC50 has been reported for the following molecule? `Cc1noc(C)c1S(=O)(=O)N1CCC2(CC1)OCCS2`
// result < 5.00

* * *

testedTarget: Muscarinic acetylcholine receptor M3 (Homo sapiens, UniProt P20309)
Sequence (P20309 whole entry): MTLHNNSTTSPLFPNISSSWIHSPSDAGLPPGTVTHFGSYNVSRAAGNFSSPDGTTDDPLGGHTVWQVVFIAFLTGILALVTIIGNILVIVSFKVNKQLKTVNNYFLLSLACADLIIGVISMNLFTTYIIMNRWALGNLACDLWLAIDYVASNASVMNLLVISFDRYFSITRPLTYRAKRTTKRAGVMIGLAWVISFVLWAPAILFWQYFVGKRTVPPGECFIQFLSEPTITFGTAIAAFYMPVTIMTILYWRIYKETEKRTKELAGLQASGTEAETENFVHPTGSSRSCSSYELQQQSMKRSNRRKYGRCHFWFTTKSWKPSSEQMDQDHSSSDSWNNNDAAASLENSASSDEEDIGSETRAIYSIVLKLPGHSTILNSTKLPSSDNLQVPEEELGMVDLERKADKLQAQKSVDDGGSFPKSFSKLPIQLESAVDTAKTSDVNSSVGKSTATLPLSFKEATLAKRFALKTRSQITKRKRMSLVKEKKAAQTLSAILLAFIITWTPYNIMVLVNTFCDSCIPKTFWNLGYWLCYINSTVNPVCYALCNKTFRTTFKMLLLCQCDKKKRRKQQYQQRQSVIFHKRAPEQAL
testDescription: Antagonist activity at human muscarinic M3 receptor assessed as inhibition of acetylcholine-induced calcium response
pIC50: −log10 of the molar value.
property: pIC50

>  <mol>
COc1ccc([C@@]23c4ccccc4C(=O)N2CCN3C(=O)c2cc(F)c(F)c(F)c2)cc1C

>  <testedTarget>
Muscarinic acetylcholine receptor M3 (Homo sapiens, UniProt P20309)

>  <pIC50>
< 4.52

$$$$

Next up:
// query What value of pIC50 has been reported for the following compound? `Cc1nn(C)c(C)c1S(=O)(=O)N1CCC2(CC1)OCCS2`
// result < 5.00

* * *

IC50 by entry:
testedTarget: Muscarinic acetylcholine receptor M4 (Homo sapiens)
Sequence (P08173 whole entry): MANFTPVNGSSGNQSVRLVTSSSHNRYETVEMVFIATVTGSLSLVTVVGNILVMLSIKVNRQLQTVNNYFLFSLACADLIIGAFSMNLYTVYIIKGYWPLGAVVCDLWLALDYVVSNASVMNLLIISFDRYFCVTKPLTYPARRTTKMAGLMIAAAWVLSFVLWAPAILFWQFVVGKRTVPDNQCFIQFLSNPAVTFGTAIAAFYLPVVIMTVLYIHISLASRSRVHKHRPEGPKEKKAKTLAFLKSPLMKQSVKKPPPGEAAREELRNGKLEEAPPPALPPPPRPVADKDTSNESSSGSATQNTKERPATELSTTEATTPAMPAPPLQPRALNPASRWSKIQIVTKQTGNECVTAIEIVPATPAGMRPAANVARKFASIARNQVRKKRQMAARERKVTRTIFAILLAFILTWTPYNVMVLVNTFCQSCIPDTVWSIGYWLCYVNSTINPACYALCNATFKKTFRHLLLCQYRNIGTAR
testDescription: Antagonist activity at human muscarinic M4 receptor assessed as inhibition of acetylcholine-induced calcium response
Type: functional

Here's what some known entries look like.
>  <mol>
COc1ccc([C@@]23c4ccccc4C(=O)N2CCN3C(=O)c2cc(F)c(F)c(F)c2)cc1C

>  <IC50>
> 30 µM

$$$$
>  <mol>
Cc1nn(C)c(C)c1S(=O)(=O)N1CCC2(CC1)OCCS2

>  <IC50>
> 10 µM

$$$$

// query What value of IC50 has been reported for the following compound? `Fc1cc(F)cc(-c2nnc(Cc3nc(-c4ccc5c(c4)OCO5)no3)o2)c1`
// result > 10 µM
